This collection of values is drawn from patent US20200017449A1.

A set of compounds tested on BACE1 (Homo sapiens, UniProt P56817), with measured pIC50:
In textbook form, pIC50 equals minus log to base ten of the concentration in mol/L.

For Cc1cc(C2(c3cc(F)cc(F)c3)N=C(N)N(C)C2=O)ccc1OC(F)F (stereo not shown) [FAH-3] on BACE1 (Homo sapiens, UniProt P56817), measured pIC50 was 6.28

BACE1 (Homo sapiens, UniProt P56817) assay, compound CN1C(=O)C(c2ccc(OC(F)F)cc2)(c2cc(F)cc(F)c2)N=C1N (stereo not shown) [FAH-2] , recorded pIC50 = 5.70

Observed pIC50 on BACE1 (Homo sapiens, UniProt P56817), entry CN1C(=O)C(c2cc(F)cc(F)c2)(c2cccc(OC(F)F)c2)N=C1N (stereo not shown) [FAH-4] , equals 5.68

Lab entry: BACE1 (Homo sapiens, UniProt P56817) assay, compound CN1C(=O)C(c2ccccc2)(c2cc(F)cc(F)c2)N=C1N (stereo not shown) [FAH-1] , pIC50 = 5.52
